Ref: patent US20070037828A1

test: logP determination through HPLC (EEC directive 79/831 Annex V. A8); format: physicochemical; conditions: HPLC, gradient method, acetonitrile/0.1% aqueous phosphoric acid
MEASUREMENT NAME: logP

CC(C)CNc1c(-c2ccsc2)c(Cl)nc2c(C#N)cnn12 | 3.78
CC(C)(C)CNc1c(-c2ccsc2)c(Cl)nc2c(C#N)cnn12 | 4.18
CCCN(CC1CC1)c1c(-c2ccsc2)c(Cl)nc2c(C#N)cnn12 | 4.51
CC(C)CN(C)c1c(-c2ccsc2)c(Cl)nc2c(C#N)cnn12 | 4.13
CC(C)C(C)Nc1c(-c2ccsc2)c(Cl)nc2c(C#N)cnn12 (centres unmarked) | 4.08

====

test: logP determination through HPLC (EEC directive 79/831 Annex V. A8); type: physicochemical; conditions: HPLC, gradient method, acetonitrile/0.1% aqueous phosphoric acid
MEASUREMENT NAME: logP

CC(C)Nc1c(-c2ccsc2)c(Cl)nc2c(C#N)cnn12 | 3.37
N#Cc1cnn2c(NC3CCCC3)c(-c3cc(Cl)sc3Cl)c(Cl)nc12 | 5.03
N#Cc1cnn2c(N3CCCC3)c(-c3ccsc3)c(Cl)nc12 | 3.53
CC1CN(c2c(-c3ccsc3)c(Cl)nc3c(C#N)cnn23)CC(C)O1 (stereo not shown) | 3.53
N#Cc1cnn2c(N3CCCCC3)c(-c3ccsc3)c(Cl)nc12 | 3.58
CC1CCCCN1c1c(-c2ccsc2)c(Cl)nc2c(C#N)cnn12 (stereo not shown) | 4.27
CCN(CCC#N)c1c(-c2ccsc2)c(Cl)nc2c(C#N)cnn12 | 2.98
COCCNc1c(-c2ccsc2)c(Cl)nc2c(C#N)cnn12 | 2.94
CC1CCN(c2c(-c3ccsc3)c(Cl)nc3c(C#N)cnn23)CC1 | 4.41
COCCN(C)c1c(-c2ccsc2)c(Cl)nc2c(C#N)cnn12 | 3.17
N#Cc1cnn2c(NCC(F)(F)F)c(-c3ccsc3)c(Cl)nc12 | 3.21
N#Cc1cnn2c(NC3CCCC3)c(-c3ccsc3)c(Cl)nc12 | 3.00
CC(Nc1c(-c2ccsc2)c(Cl)nc2c(C#N)cnn12)C(F)(F)F (stereo not shown) | 3.53
CC(C)CC(C)Nc1c(-c2ccsc2)c(Cl)nc2c(C#N)cnn12 (stereo not shown) | 4.46
N#Cc1cnn2c(N3CCOCC3)c(-c3ccsc3)c(Cl)nc12 | 2.90
CCC(C)Nc1c(-c2ccsc2)c(Cl)nc2c(C#N)cnn12 (stereo not shown) | 3.74

====

test: logP determination through HPLC (EEC directive 79/831 Annex V. A8); assay type: physicochemical; details: HPLC, gradient method, acetonitrile/0.1% aqueous phosphoric acid
MEASUREMENT NAME: chromatographic logP

CC1CCN(c2c(-c3ncncc3Cl)c(Cl)nc3c(C=O)cnn23)CC1 | 3.04

[A] N#Cc1cnn2c(O)c(-c3ncccc3C(F)(F)F)c(O)nc12
[B] N#Cc1cnn2c(Cl)c(-c3ncccc3C(F)(F)F)c(Cl)nc12
[C] C=Cc1cnn2c(N3CCC(C)CC3)c(-c3ncncc3Cl)c(Cl)nc12
QUERY: Arrange by chromatographic logP, high to low. Order the labels as requested and list them.
RESULT: C, B, A
(C: 4.7, B: 2.68, A: 0.29)
